# TEST TARGET: T1, human TL1A extracellular domain with N-terminal HIS and FLAG tag (human, UniProt O95150 72-251)
# T1 construct: the whole entry is named; also called TNFSF15
# T1 sequence: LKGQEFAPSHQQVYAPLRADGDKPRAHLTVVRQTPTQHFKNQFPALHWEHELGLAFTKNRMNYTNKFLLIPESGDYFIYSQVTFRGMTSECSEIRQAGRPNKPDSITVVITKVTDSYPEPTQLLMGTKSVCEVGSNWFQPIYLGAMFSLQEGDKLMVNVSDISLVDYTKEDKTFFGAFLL
# ASSAY SUMMARY: SPR Run 7, antibody on Protein A, TL1A 5 ug/mL, timepoint 220
# Description: 1.5. Antibody expression and antigen binding as determined by SPR. Using a CM5 sensor chip (GE Healthcare) Protein A (Pierce) was coupled to the chip surface using an amine coupling kit (GE Healthcare). Protein A was coupled on flow cell 1 and 2 (or alternatively 3 and 4) using a BIACORE® T200. […] At the end of injection of the supernatant or purified antibody the change in response units was measured. […] The response units were measured prior to the end of the dissociation phase. […]
MEASUREMENT NAME: TL1A Binding Level (Late) (RU)
# number only, unit RU dropped from output

Record summary for 320-519 (antibody, human IgG1, name in Kabat numbering, V domains shown, full-length human IgG1, lambda) VH: QVQLVQSGAEVKKPGASVKVSCKASGYTFTSYDINWVRQAPGQGLEWMGWLNPKSGNTGYAQKFQGRVTMTADRSTSTAYMELSSLRSEDTAVYYCAREVPETAAFEYWGQGTLVTVSS VL: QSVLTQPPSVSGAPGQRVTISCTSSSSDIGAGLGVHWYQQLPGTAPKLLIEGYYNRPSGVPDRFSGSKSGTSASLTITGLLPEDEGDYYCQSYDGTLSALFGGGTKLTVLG : reported TL1A Binding Level (Late) = 196

// next entry
The binder listed as 320-546 (antibody, human IgG1, name in Kabat numbering, V domains shown, full-length human IgG1, lambda) VH: QVQLVQSGAEVKKPGASVKVSCKASGYTFTSYDINWVRQAPGQGLEWMGWLNPNSGWTGYAQKFQGRVTMTADRSTSTAYMELSSLRSEDTAVYYCAREVPETAAFEYWGQGTLVTVSS VL: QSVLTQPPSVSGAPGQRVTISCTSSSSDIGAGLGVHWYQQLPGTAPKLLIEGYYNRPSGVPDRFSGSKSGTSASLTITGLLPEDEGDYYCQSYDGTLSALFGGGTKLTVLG shows TL1A Binding Level (Late) equal to 61

Where these numbers come from: patent US20170081400A1
